The origin of these recorded values is ChEMBL document CHEMBL5291721.

Target: Adenosine receptor A3 (Homo sapiens, UniProt P0DMS8); also: assay procedure not described here
Sequence (P0DMS8 whole entry): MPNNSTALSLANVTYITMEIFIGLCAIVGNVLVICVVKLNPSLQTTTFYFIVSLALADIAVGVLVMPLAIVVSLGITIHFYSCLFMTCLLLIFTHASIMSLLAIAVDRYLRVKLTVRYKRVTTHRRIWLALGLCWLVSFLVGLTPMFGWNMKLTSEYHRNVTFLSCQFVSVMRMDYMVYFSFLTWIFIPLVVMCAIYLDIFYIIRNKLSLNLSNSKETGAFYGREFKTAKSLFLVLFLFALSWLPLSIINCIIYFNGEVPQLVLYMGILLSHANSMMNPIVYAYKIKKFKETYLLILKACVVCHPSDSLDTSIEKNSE
OBSERVATION_TYPE: AC50

Specify measured AC50 for COc1ccc(C(CN(C)C)C2(O)CCCCC2)cc1 (centres undefined) [VENLAFAXINE] . > 30 µM

Specify measured AC50 for CCSc1ccc2c(c1)N(CCCN1CCN(C)CC1)c1ccccc1S2 [THIETHYLPERAZINE] . > 10 µM

Next:
Specify measured AC50 for CC1(C)O[C@@H]2C[C@H]3[C@@H]4C[C@H](F)C5=CC(=O)C=C[C@]5(C)[C@H]4[C@@H](O)C[C@]3(C)[C@]2(C(=O)CO)O1 [FLUNISOLIDE] . > 30 µM

Specify measured AC50 for CCN(CC)CCOC(=O)c1ccc(N)cc1Cl [CHLOROPROCAINE] . > 30 µM

Specify measured AC50 for COC1=C(OC)C(=O)C(CCCCCCCCCCO)=C(C)C1=O [IDEBENONE] . > 30 µM
